We begin with a simple list: items and their reported TGI.
Test system: SK-MEL-5 melanoma
Experiment: NCI tumour cell line growth inhibition, 48 h
measurement kind: TGI

• COCCN1C2=CCCCC2=Nc2c1nc(N)[nH]c2=O = > 100 µM
• C/C(N=Nc1nc2ccccc2s1)=C1/C=CC=CN1O = > 100 µM
• O=C(O)[C@@H]1C[C@@H](O)CN1C(=O)OCc1ccccc1 = > 100 µM
• COc1nc(NC2OCC(OC(C)=O)C(OC(C)=O)C2OC(C)=O)c(N=CC=Nc2c(NC3OCC(OC(C)=O)C(OC(C)=O)C3OC(C)=O)nc(OC)n(C)c2=O)c(=O)n1C (stereo unspecified) = > 100 µM
• CC1=NOC(=O)/C1=C/c1ccccc1O = > 100 µM
• COc1ccc2c(CCCC(c3ccccc3)c3ccccc3)c3[n+](cc2c1OC)CCc1cc2c(cc1-3)OCO2 = 0.284 µM
• O=C(c1ccc(F)cc1)c1cccc(C(=O)c2ccc(F)cc2)n1 = > 79.2 µM
• Nc1nn2c(C(Br)Br)cc(C(Br)Br)nc2c1[N+](=O)[O-] = 3.06 µM
• C[n+]1c(-c2ccccc2)cc2/c(=C\c3ccc([N+](=O)[O-])cc3)c3ccccc3n21 = > 19.7 µM
• CCOC(=O)c1[nH]cc(C)c1-c1ccn(-c2ccccc2)c1 = 63.9 µM
• CC1(C)SC2C(NC(=O)C(N)c3ccccc3)C(=O)N2C1C(=O)O (stereo unspecified) = > 100 µM
• CCCCCCCCCC[C@H](O)[C@H]1CC[C@H]([C@H]2CC[C@H]([C@H](O)CC[C@H](O)CCCCCCC[C@@H](O)CC3=C[C@H](C)OC3=O)O2)O1 = 3.93 µM
• CCOC1CC(=O)c2c(Br)sc(Br)c21 (stereo unspecified) = > 100 µM
• O=C1c2ccccc2CN1c1ccc(O)cc1 = > 100 µM
• CCN(Cc1ccc(F)c(F)c1)c1ccc(CO)c(Cl)c1 = 20.3 µM
• COc1ccc(CC(CO)NC(=O)OCc2ccccc2)cc1Oc1ccc(CC(CO)NC(=O)OCc2ccccc2)cc1 (stereo unspecified) = > 100 µM
• Nc1c2ccccc2nc2c1ccc1ncccc12 = > 100 µM
• COc1ccc2c(c1)O/C(=C\c1cccc(OCC(=O)Nc3nc4c(s3)CCCC4)c1)C2=O = > 100 µM
• CCC[C@H]1C(=O)N=C(N)N1C(=O)OCc1ccccc1 = > 100 µM
• CN(CCCN)CCCNc1nc2ccccc2c2[nH]c3ccccc3c12 = 1.98 µM
• CC(CC(C#N)(c1ccccc1)c1ccccc1)N1CCCCC1 (stereo unspecified) = 33.6 µM

// data source = PubChem BioAssay (NCI)
